# Dmax annotations
experimental-system: SMARCA2 (Homo sapiens, UniProt P51531)
Sequence (P51531 whole entry): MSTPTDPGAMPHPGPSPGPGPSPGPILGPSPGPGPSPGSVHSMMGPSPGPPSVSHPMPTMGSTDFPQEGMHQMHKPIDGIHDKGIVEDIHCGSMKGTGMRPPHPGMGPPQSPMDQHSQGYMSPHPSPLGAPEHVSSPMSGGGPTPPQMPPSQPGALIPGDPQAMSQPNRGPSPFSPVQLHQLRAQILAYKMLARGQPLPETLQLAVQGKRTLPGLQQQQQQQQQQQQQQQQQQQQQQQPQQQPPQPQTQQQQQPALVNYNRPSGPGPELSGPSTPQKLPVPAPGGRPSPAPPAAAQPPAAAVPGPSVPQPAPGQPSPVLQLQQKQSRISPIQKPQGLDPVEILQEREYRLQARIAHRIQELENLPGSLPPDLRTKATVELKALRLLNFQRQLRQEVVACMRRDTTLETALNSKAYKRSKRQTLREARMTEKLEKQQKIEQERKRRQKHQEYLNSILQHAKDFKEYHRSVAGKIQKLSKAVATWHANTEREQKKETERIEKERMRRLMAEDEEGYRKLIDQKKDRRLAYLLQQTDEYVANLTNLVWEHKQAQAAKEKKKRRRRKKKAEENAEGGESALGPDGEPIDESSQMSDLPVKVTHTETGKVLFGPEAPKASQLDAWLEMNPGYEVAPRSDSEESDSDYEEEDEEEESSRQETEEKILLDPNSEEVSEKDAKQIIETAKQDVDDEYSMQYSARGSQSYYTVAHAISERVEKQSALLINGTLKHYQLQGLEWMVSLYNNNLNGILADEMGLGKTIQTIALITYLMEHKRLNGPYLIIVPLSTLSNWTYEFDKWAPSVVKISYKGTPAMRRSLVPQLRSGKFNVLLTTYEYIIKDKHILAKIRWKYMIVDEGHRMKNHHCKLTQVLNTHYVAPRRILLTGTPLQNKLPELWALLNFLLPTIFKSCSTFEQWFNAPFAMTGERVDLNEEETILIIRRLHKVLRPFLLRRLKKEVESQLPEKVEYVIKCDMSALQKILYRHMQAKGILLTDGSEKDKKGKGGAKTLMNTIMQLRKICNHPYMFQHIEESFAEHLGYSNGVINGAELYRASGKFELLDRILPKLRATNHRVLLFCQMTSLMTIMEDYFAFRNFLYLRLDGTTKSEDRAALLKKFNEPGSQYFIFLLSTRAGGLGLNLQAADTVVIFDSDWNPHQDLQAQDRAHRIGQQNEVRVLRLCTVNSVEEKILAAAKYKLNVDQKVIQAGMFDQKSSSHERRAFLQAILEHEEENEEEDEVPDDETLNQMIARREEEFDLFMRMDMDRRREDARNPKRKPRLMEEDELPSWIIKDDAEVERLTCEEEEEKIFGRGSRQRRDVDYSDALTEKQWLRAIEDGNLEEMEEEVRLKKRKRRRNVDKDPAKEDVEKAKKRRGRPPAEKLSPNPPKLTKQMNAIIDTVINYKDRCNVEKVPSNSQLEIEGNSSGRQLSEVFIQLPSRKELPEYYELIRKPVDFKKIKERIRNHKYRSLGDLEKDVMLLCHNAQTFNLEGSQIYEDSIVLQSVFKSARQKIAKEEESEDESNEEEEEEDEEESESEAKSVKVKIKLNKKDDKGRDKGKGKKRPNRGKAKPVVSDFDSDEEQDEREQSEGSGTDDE
experiment-notes: MSD SMARCA2 degradation in NCI-H1299 cell line (24 h)
Type: cell-based
Design: HC: NCI-H1299 cells treated with DMSO; host or cells: NCI-H1299
condition: NCI-H1299, NCI-H1299 cells
readout-kind: Dmax

| molecule | measured |
| --- | --- |
| Cn1c(=O)n(C2CCC(=O)NC2=O)c2cccc(C#CCCCCc3cn(Cc4cccc(N5C[C@H]6C[C@@H]5CN6/C=C/C(=O)c5ccccc5O)n4)nn3)c21 (some centres unmarked) | < 50% |
| Cc1ncsc1-c1ccc(CNC(=O)[C@@H]2C[C@@H](O)CN2C(=O)[C@@H](NC(=O)CCCCCCCCCN2CCC(Cn3cc(-c4cc(-c5ccccc5O)nnc4N)cn3)CC2)C(C)(C)C)cc1 | > 90% |
| Cc1ncsc1-c1ccc(CNC(=O)[C@@H]2C[C@@H](O)CN2C(=O)[C@@H](NC(=O)CN2CCC[C@@H](Cn3cc(-c4cc(-c5ccccc5O)nnc4N)cn3)C2)C(C)(C)C)cc1 | < 50% |
| Nc1nnc(-c2ccccc2O)cc1N1CCN(c2ccc(CNCCOCCCc3cccc4c3oc(=O)n4C3CCC(=O)NC3=O)cc2)CC1 (centres unmarked) | 50 to 70% |
| Cn1c(=O)n(C2CCC(=O)NC2=O)c2ccc(CCCCCCCCCOc3cccc(CN4CCN(c5cc(-c6ccccc6O)nnc5N)CC4)c3)cc21 (centres unmarked) | < 50% |
| Cn1c(=O)n(C2CCC(=O)NC2=O)c2ccc(C3CCC(N4CCC(c5cnc(N6C7CCC6CN(c6cc(-c8ccccc8O)nnc6N)C7)nc5)CC4)CC3)cc21 (centres unmarked) | > 90% |
| COc1cc(C(=O)NCCCCCCCCCCCNCc2ccc(N3CCN(c4cc(-c5ccccc5O)nnc4N)CC3)cc2)ccc1NC(=O)[C@@H]1N[C@@H](CC(C)(C)C)[C@](C#N)(c2ccc(Cl)cc2F)[C@H]1c1cccc(Cl)c1F | 50 to 70% |
| Cn1c(=O)n(C2CCC(=O)NC2=O)c2ccc(CCCN3CCCC(c4cnc(N5C6CCC5CN(c5cc(-c7ccccc7O)nnc5N)C6)nc4)C3)cc21 (centres unmarked) | 70 to 90% |
| Cn1c(=O)n(C2CCC(=O)NC2=O)c2cccc(CCCOCCOCCN3CCN(Cc4ccc(-c5cc(-c6ccccc6O)nnc5N)cc4)CC3)c21 (centres unmarked) | 50 to 70% |
| CN[C@@H](C)C(=O)N[C@H](C(=O)N1CCC[C@H]1c1nc(C(=O)c2cccc(OCCOCCOCCNCc3ccc(-c4cc(-c5ccccc5O)nnc4N)cc3)c2)cs1)C1CCCCC1 | 50 to 70% |
| Cn1c(=O)n(C2CCC(=O)NC2=O)c2ccc(CNCCCc3cn(Cc4cccc(N5C[C@H]6C[C@@H]5CN6/C=C/C(=O)c5ccccc5O)n4)nn3)cc21 (some centres unmarked) | < 50% |

Data provenance: patent US12624044B2
